molecular target: human α-thrombin (recombinant) (human, UniProt P00734 328-363; P00734 364-622); experiment: thrombin amidolytic assay with S2238; column headed Affinity (nM)
Value Kind: Ki (nM)

Binder: SGGHQTAVPKISKQGLGGDFEEIPSDEIIE (Synthetic 30-residue peptide; one repeat of precursor protein BAD29729) [avathrin (Amblyomma variegatum thrombin inhibitor)]
Value Kind: Ki
Unit Annotation: nM
Recorded Number: 0.545
